Provenance of the data: ChEMBL document CHEMBL2069218

# SYSTEM TESTED: Adenosine receptor A2b (Homo sapiens)
# Sequence (P29275 whole entry): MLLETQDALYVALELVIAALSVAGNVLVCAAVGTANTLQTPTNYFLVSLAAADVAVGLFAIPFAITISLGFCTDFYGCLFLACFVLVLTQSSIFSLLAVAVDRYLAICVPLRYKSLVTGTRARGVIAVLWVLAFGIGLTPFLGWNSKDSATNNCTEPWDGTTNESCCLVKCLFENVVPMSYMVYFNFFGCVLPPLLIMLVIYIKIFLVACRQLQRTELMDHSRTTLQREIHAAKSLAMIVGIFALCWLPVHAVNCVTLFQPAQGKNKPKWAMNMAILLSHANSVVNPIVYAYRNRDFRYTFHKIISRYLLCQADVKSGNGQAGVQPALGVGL
# PROCEDURE DETAILS: Antagonist activity at human adenosine A2B receptor expressed in CHO cells assessed as inhibition of NECA-induced cAMP production
Catalogue of IC50 readings, one per entry.

Solved entries (count: 4):
Cn1cc2c(nc(NC(=O)NC3CCN(C(=O)NCCCc4ccccc4)CC3)n3nc(-c4ccco4)nc23)n1 ... 1.54 µM
CN1CCN(C(=O)N2CCC(NC(=O)Nc3nc4nn(C)cc4c4nc(-c5ccco5)nn34)CC2)CC1 ... 2.14 µM
Cn1cc2c(nc(NC(=O)NC3CCN(C(=O)NC4CCCCCC4)CC3)n3nc(-c4ccco4)nc23)n1 ... > 5 µM
Cn1cc2c(nc(NC(=O)NC3CCN(Cc4cccnc4)CC3)n3nc(-c4ccco4)nc23)n1 ... > 5 µM

QUERY: Reported IC50, compound COc1ccc(CN2CCC(NC(=O)Nc3nc4nn(C)cc4c4nc(-c5ccco5)nn34)CC2)cc1 : ____
RESULT: > 5 µM

QUERY: Now consider Cn1cc2c(nc(NC(=O)NC3CCN(C(=O)NCc4ccc(F)cc4)CC3)n3nc(-c4ccco4)nc23)n1 and answer again.
RESULT: 1.04 µM

QUERY: Follow-up entry: CCCN1CCC(NC(=O)Nc2nc3nn(C)cc3c3nc(-c4ccco4)nn23)CC1
RESULT: > 5 µM

QUERY: How about this compound: Cc1ccc(CN2CCC(NC(=O)Nc3nc4nn(C)cc4c4nc(-c5ccco5)nn34)CC2)cc1
RESULT: > 5 µM

* * *

# SYSTEM TESTED: Adenosine receptor A2b (Homo sapiens, UniProt P29275)
# Sequence (P29275 whole entry): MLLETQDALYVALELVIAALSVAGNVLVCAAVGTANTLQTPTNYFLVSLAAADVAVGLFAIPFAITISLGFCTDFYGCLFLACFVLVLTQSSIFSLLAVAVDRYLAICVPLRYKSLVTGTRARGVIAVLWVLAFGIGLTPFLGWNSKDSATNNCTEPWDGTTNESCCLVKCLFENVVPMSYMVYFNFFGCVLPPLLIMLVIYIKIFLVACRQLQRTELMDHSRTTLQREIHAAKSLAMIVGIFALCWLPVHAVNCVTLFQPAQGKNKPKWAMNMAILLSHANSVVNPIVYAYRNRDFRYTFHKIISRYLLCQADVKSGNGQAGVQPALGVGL
# PROCEDURE DETAILS: Antagonist activity at human adenosine A2B receptor expressed in CHO cells assessed as inhibition of NECA-induced cAMP production
OUTCOME MEASURE: IC50 (nM)
Value expressed in nM; do not type the unit.

Cn1cc2c(nc(NC(=O)NC3CCNCC3)n3nc(-c4ccco4)nc23)n1 ... 2430

Query molecule follows.
QUERY: Quick one: IC50 for Cn1cc2c(nc(NC(=O)NC3CCN(C(=O)NCc4ccc(Cl)cc4)CC3)n3nc(-c4ccco4)nc23)n1 ?
RESULT: 505

* * *

# SYSTEM TESTED: Adenosine receptor A3 (Homo sapiens, UniProt P0DMS8)
# Sequence (P0DMS8 whole entry): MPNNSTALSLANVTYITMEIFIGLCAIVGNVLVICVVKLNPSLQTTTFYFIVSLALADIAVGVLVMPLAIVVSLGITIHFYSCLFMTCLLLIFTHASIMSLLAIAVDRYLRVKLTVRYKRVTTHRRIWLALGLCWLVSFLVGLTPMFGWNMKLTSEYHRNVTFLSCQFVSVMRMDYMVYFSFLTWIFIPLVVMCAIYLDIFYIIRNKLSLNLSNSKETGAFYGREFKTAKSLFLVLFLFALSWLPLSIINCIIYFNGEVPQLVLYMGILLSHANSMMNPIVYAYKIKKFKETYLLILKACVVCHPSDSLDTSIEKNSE
Catalogue of Ki readings, one per entry.
# unit: nM | format: bare number

Cn1cc2c(nc(NC(=O)NC3CCN(Cc4ccccc4)CC3)n3nc(-c4ccco4)nc23)n1 ... 30
Cn1cc2c(nc(NC(=O)NC3CCN(Cc4ccc(F)cc4)CC3)n3nc(-c4ccco4)nc23)n1 ... 24
CN1CCN(C(=O)N2CCC(NC(=O)Nc3nc4nn(C)cc4c4nc(-c5ccco5)nn34)CC2)CC1 ... 31
Cn1cc2c(nc(NC(=O)NC3CCN(C(=O)NCCCc4ccccc4)CC3)n3nc(-c4ccco4)nc23)n1 ... 14.5
Cn1cc2c(nc(NC(=O)NC3CCN(C(=O)NCc4ccc(Cl)cc4)CC3)n3nc(-c4ccco4)nc23)n1 ... 25
Cn1cc2c(nc(NC(=O)NC3CCN(C(=O)NCc4ccc(F)cc4)CC3)n3nc(-c4ccco4)nc23)n1 ... 4.9
Cn1cc2c(nc(NC(=O)NC3CCN(C(=O)NC4CCCCC4)CC3)n3nc(-c4ccco4)nc23)n1 ... 13.7
Cn1cc2c(nc(NC(=O)NC3CCN(Cc4ccc(C#N)cc4)CC3)n3nc(-c4ccco4)nc23)n1 ... 11.8
CCOC(=O)CN1CCC(NC(=O)Nc2nc3nn(C)cc3c3nc(-c4ccco4)nn23)CC1 ... 12.2
Cn1cc2c(nc(NC(=O)NC3CCN(Cc4ccc([N+](=O)[O-])cc4)CC3)n3nc(-c4ccco4)nc23)n1 ... 12.4

QUERY: I have this molecule here, Cn1cc2c(nc(NC(=O)NC3CCN(C(=O)NCCc4ccccc4)CC3)n3nc(-c4ccco4)nc23)n1 , and I need its recorded Ki.
RESULT: 6.8

QUERY: Also need COc1ccc(CNC(=O)N2CCC(NC(=O)Nc3nc4nn(C)cc4c4nc(-c5ccco5)nn34)CC2)cc1 , thanks.
RESULT: 10.4

QUERY: Can you check CCNC(=O)N1CCC(NC(=O)Nc2nc3nn(C)cc3c3nc(-c4ccco4)nn23)CC1 next?
RESULT: 30

* * *

# SYSTEM TESTED: Adenosine receptor A3 (Homo sapiens, UniProt P0DMS8)
# PROCEDURE DETAILS: Antagonist activity at human adenosine A3 receptor expressed in CHO cells assessed as forskolin/C1-IB-MECA-induced inhibition of cAMP production
OUTCOME MEASURE: IC50 (nM)
Express the result in nM but write the number alone.

Record excerpt, results attached:
Cn1cc2c(nc(NC(=O)NC3CCN(Cc4ccc(Cl)cc4)CC3)n3nc(-c4ccco4)nc23)n1 ... 91
Cn1cc2c(nc(NC(=O)NC3CCN(C(=O)NC4CCCCC4)CC3)n3nc(-c4ccco4)nc23)n1 ... 44

QUERY: Item Cn1cc2c(nc(NC(=O)NC3CCN(C(=O)NC4CCCC4)CC3)n3nc(-c4ccco4)nc23)n1 with Adenosine receptor A3 (Homo sapiens, UniProt P0DMS8) - IC50?
RESULT: 30

QUERY: Now give it for Cc1ccc(CNC(=O)N2CCC(NC(=O)Nc3nc4nn(C)cc4c4nc(-c5ccco5)nn34)CC2)cc1 too.
RESULT: 12

QUERY: Also, Cn1cc2c(nc(NC(=O)NC3CCN(Cc4ccc(C#N)cc4)CC3)n3nc(-c4ccco4)nc23)n1 please.
RESULT: 40

QUERY: // query: Cn1cc2c(nc(NC(=O)NC3CCN(C(=O)NCCc4ccccc4)CC3)n3nc(-c4ccco4)nc23)n1
RESULT: 23

QUERY: Try the compound CC(C)NC(=O)N1CCC(NC(=O)Nc2nc3nn(C)cc3c3nc(-c4ccco4)nn23)CC1
RESULT: 34

* * *

# SYSTEM TESTED: Adenosine receptor A2b (Homo sapiens)
# PROCEDURE DETAILS: Antagonist activity at human adenosine A2B receptor expressed in CHO cells assessed as inhibition of NECA-induced cAMP production
pIC50: −log10 of the molar value.
The following molecules are shown together with reported pIC50 values.

Example cases with answers are listed next.
C#CCN1CCC(NC(=O)Nc2nc3nn(C)cc3c3nc(-c4ccco4)nn23)CC1 ... < 5.30
Cc1ccc(CNC(=O)N2CCC(NC(=O)Nc3nc4nn(C)cc4c4nc(-c5ccco5)nn34)CC2)cc1 ... 5.67
Cl.Cn1cc2c(nc(NC(=O)NC3CCN(CC4CCCCC4)CC3)n3nc(-c4ccco4)nc23)n1 ... < 5.30
Cn1cc2c(nc(NC(=O)NC3CCN(C(=O)NCCc4ccccc4)CC3)n3nc(-c4ccco4)nc23)n1 ... 5.76
CC(C)NC(=O)N1CCC(NC(=O)Nc2nc3nn(C)cc3c3nc(-c4ccco4)nn23)CC1 ... < 5.30

QUERY: Reported pIC50, molecule Cn1cc2c(nc(NC(=O)NC3CCN(C(=O)Nc4ccncc4)CC3)n3nc(-c4ccco4)nc23)n1 : ____
RESULT: 5.49

QUERY: Do the same for Cn1cc2c(nc(NC(=O)NC3CCN(C(=O)NC4CCCC4)CC3)n3nc(-c4ccco4)nc23)n1 please
RESULT: < 5.30

QUERY: Now give it for C=CCN1CCC(NC(=O)Nc2nc3nn(C)cc3c3nc(-c4ccco4)nn23)CC1 too.
RESULT: < 5.30

QUERY: Please answer likewise for Cn1cc2c(nc(NC(=O)NC3CCN(Cc4ccc(F)cc4)CC3)n3nc(-c4ccco4)nc23)n1
RESULT: < 5.30

QUERY: Further, for CN1CCC(NC(=O)Nc2nc3nn(C)cc3c3nc(-c4ccco4)nn23)CC1 ?
RESULT: < 5.30
